Biological target: mouse BLyS protein (mouse, UniProt Q9WU72 69-309)
Sequence (Q9WU72 69-309): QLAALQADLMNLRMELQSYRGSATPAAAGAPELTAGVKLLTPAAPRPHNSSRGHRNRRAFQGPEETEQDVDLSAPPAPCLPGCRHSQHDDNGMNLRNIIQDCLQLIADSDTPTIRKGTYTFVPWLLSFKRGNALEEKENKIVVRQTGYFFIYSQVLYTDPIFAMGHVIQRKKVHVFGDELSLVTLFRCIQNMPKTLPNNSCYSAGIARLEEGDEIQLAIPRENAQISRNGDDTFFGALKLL
Experiment: cell-based or functional assay
METRIC NAME: mouse B lymphocyte proliferation (OD450 nm), antibody 20 nM

>>> measured("97A3C2H4 (antibody, V domains shown, Mouse hybridoma monoclonal antibody purified on Protein G) VH: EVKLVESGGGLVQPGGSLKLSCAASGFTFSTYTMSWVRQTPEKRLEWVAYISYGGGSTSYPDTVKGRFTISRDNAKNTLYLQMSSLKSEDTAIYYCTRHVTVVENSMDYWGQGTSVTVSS VL: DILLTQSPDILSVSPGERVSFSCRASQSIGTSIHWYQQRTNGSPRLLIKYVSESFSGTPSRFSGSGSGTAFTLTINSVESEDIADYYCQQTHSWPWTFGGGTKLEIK")
2400
>>> measured("93C6F10D3 (antibody, V domains shown, Mouse hybridoma monoclonal antibody purified on Protein G) VH: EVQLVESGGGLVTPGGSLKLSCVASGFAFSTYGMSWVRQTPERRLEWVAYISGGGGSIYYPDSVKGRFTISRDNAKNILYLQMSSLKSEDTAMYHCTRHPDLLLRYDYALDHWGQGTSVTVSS VL: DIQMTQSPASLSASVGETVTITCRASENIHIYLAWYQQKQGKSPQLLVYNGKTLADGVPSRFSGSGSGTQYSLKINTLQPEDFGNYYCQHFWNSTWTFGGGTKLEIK")
2620
